target: Sortase A (Staphylococcus aureus, UniProt Q9S446, N24DEL); assay: Inhibition of Staphylococcus aureus sortase A N24 deletion mutant using Abz-LPATG-Dnp as substrate preincubated for 20 mins followed by substrate addition by FRET assay
Reported IC50 values for a set of molecules
Just the number please, in nM, no unit attached.

CC(C)c1ccc(/C=C/C=C2C(=O)NC(=O)NC2=O)cc1 = 1800
COc1ncc(/C=C/C=C2C(=O)NC(=O)NC2=O)cn1 = 7700
Cc1ccc(/C=C/C=C2C(=O)NC(=O)NC2=O)cc1 = 1000

# next molecule below
# query: IC50 of entry O=C1NC(=O)C(=C/C=C/c2ccco2)C(=O)N1 1400

---

molecular target: Sortase A (Staphylococcus aureus, UniProt Q9S446, N24DEL); test: Covalent inhibition of Staphylococcus aureus sortase A N24 deletion mutant assessed as inactivation constant incubated for 60 mins
Attribute measured: pKi
Answer as the number alone; pKi is minus log10 of concentration in mol/L.

What measured pKi goes with O=C1NC(=O)C(=C/C=C/c2ccc(OCc3ccc(F)cc3)cc2)C(=O)N1 ? 5.80

---

target: Cathepsin B (Homo sapiens, UniProt P07858)
Attribute measured: pIC50
# pIC50 = -log10(concentration in molar units)

Using the record for O=C1NC(=O)C(=C/C=C/c2ccc(OCc3ccc(F)cc3)cc2)C(=O)N1 , report its pIC50. 7.44

---

target: Sortase A (Staphylococcus aureus, UniProt Q9S446, N24DEL); experiment: Inhibition of Staphylococcus aureus sortase A N24 deletion mutant using Abz-LPATG-Dnp as substrate preincubated for 20 mins followed by substrate addition by FRET assay
Note to self: IC50 under 1000 nM means YES, ties and anything higher get NO.

N#Cc1ccc(COc2ccc(/C=C/C=C3C(=O)NC(=O)NC3=O)cc2)cc1 = YES

Please check: IC50 for COc1cccc(/C=C/C=C2C(=O)NC(=O)NC2=O)c1 , strictly under 1000 nM or not? NO

Same read-out for O=C1NC(=O)C(=C/C=C/c2ccc(OCc3cccnc3)cc2)C(=O)N1 ? NO

Same question for CCCOc1ccc(/C=C/C=C2C(=O)NC(=O)NC2=O)cc1 please. YES

Same question for O=C1NC(=O)C(=C/C=C/c2ccc(OCc3ccsc3)cc2)C(=O)N1 please. YES

For COc1ccc(/C=C/C=C2C(=O)NC(=O)NC2=O)cn1 then? NO

Then what about the compound O=C1NC(=O)C(=C/C=C/c2ccc(OCc3ccc(C(F)(F)F)cc3)cc2)C(=O)N1 ? NO

---

This listing pairs compounds with measured IC50.
assay: Inhibition of Streptococcus pyogenes Sortase A N81 deletion mutant transpeptidation using IsdA64-323 as substrate preincubated for 20 mins followed by substrate addition and measured after 1.5 hrs by SDS-PAGE analysis
Give just the number in µM; leave the unit off.

O=C1NC(=O)C(=C/C=C/c2ccc(OCc3ccc(F)cc3)cc2)C(=O)N1 = 4.9

Returns the measured IC50 for the input compound. Input: COc1ccc(/C=C/C=C2C(=O)NC(=O)NC2=O)cc1 3.4

---

target: Sortase A (Staphylococcus aureus, UniProt Q9S446, N24DEL); test: Inhibition of Staphylococcus aureus Sortase A N24 deletion mutant transpeptidation using IsdA64-323 as substrate preincubated for 20 mins followed by substrate addition and measured after 1.5 hrs by SDS-PAGE analysis
// reported pIC50 per item
Note on units: pIC50 is unitless, being -log10 of a concentration expressed in mol/L.

Worked set:
O=C1NC(=O)C(=C/C=C/c2ccccc2)C(=O)N1 = 5.09
O=C1NC(=O)C(=C/C=C/c2ccc(F)cc2)C(=O)N1 = 5.13
COc1ccc(/C=C/C=C2C(=O)NC(=O)NC2=O)cc1 = 5.13
O=C1NC(=O)C(=C/C=C/c2ccc(OCC(=O)c3ccco3)cc2)C(=O)N1 = 4.61
O=C1NC(=O)C(=C/C=C/c2ccc(OCc3ccc(F)cc3)cc2)C(=O)N1 = 5.28

// lookup pIC50 | system=Sortase A (Staphylococcus aureus, UniProt Q9S446, N24DEL) | key= O=C1NC(=O)C(=C/C=C/c2ccc(Br)cc2)C(=O)N1 5.05

Another: CCCOc1ccc(/C=C/C=C2C(=O)NC(=O)NC2=O)cc1 5.09

What about CC(=O)Oc1ccc(COc2ccc(/C=C/C=C3C(=O)NC(=O)NC3=O)cc2)cc1 ? 4.79

What do you have for O=C1NC(=O)C(=C/C=C/c2ccc(OCC(=O)c3ccc[nH]3)cc2)C(=O)N1 ? 4.82

And what about the compound O=C1NC(=O)C(=C/C=C/c2ccc(OCc3ccccc3)cc2)C(=O)N1 ? 5.05
